Species: Rattus norvegicus
Experiment: Open TG-GATES - Regimen: Daily Repeat
Type: toxicity, organism-based, Sprague-Dawley
Parameters: regimen Daily Repeat, gender Male, age 6 weeks
Conditions: in vivo, po, 300 mg/kg, […], tissue Blood, route gavage, dose level Middle, time 28 day
MEASURED ENDPOINT: WBC (x10_2/uL)
I only need the number, in x10_2/uL, no unit after it.

Qu. Give the measured WBC for "O=C(O)c1cccnc1"
Ans. 105.7

Qu. Give the measured WBC for "O=C(N[C@H](CO)[C@H](O)c1ccc([N+](=O)[O-])cc1)C(Cl)Cl"
Ans. 69.9

Qu. Give the measured WBC for CCN1CCCC1CNC(=O)c1cc(S(N)(=O)=O)ccc1OC (centres undefined) [SULPIRIDE]
Ans. 109.3

Qu. Give the measured WBC for "CC(C)(S)[C@@H](N)C(=O)O"
Ans. 131.5

----------
Species: Rattus norvegicus
Experiment: Open TG-GATES - Regimen: Daily Repeat
Assay type: toxicity, organism-based, Sprague-Dawley
Design: regimen Daily Repeat, gender Male, age 6 weeks
Conditions: in vivo, po, 0 mg/kg, […], tissue Plasma, route gavage, dose level Control, time 14 day
MEASURED ENDPOINT: TC (mg/dL)
I only need the number, in mg/dL, no unit after it.

Qu. Give the measured TC for "O=C(O)c1cccnc1"
Ans. 75.6

Qu. Give the measured TC for "CN1C(=O)OC(C)(C)C1=O"
Ans. 80.8

Qu. Give the measured TC for CC(C)C(=O)Nc1ccc([N+](=O)[O-])c(C(F)(F)F)c1 [FLUTAMIDE]
Ans. 67

Qu. Give the measured TC for CCN1CCCC1CNC(=O)c1cc(S(N)(=O)=O)ccc1OC (configuration not stated) [SULPIRIDE]
Ans. 68.2

Qu. Give the measured TC for "Oc1ncnc2[nH]ncc12"
Ans. 70

Qu. Give the measured TC for "CC(=O)Oc1cc(C(C)C)c(OCCN(C)C)cc1C"
Ans. 75.4

Qu. Give the measured TC for "CCc1oc2ccccc2c1C(=O)c1cc(I)c(O)c(I)c1"
Ans. 72.4

----------
Species on record: Rattus norvegicus
Assay: Open TG-GATES - Regimen: Daily Repeat
Assay type: toxicity, organism-based, Sprague-Dawley
Design: regimen Daily Repeat, gender Male, age 6 weeks
Settings: in vivo, po, 0 mg/kg, […], tissue Blood, route gavage, dose level Control, time 7 day
MEASURED ENDPOINT: MCV (fL)
I only need the number, in fL, no unit after it.

Qu. Give the measured MCV for O=C(N[C@H](CO)[C@H](O)c1ccc([N+](=O)[O-])cc1)C(Cl)Cl [CHLORAMPHENICOL]
Ans. 65.7

Qu. Give the measured MCV for "Nc1nc(N)c2nc(-c3ccccc3)c(N)nc2n1"
Ans. 63.6

Qu. Give the measured MCV for C[C@]12CCC(=O)C=C1CC[C@@H]1[C@@H]2CC[C@@]2(C)[C@H]1CC[C@]2(C)O [METHYLTESTOSTERONE]
Ans. 62.6

Qu. Give the measured MCV for CC(C)C(=O)Nc1ccc([N+](=O)[O-])c(C(F)(F)F)c1 [FLUTAMIDE]
Ans. 62.3

Qu. Give the measured MCV for CN1C(=O)OC(C)(C)C1=O [TRIMETHADIONE]
Ans. 63.9

Qu. Give the measured MCV for Oc1ncnc2[nH]ncc12 [ALLOPURINOL]
Ans. 61.4

Qu. Give the measured MCV for CCSCC[C@H](N)C(=O)O [ETHIONINE]
Ans. 61.8

Qu. Give the measured MCV for C[C@](N)(Cc1ccc(O)c(O)c1)C(=O)O [METHYLDOPA]
Ans. 61.4

Qu. Give the measured MCV for CCc1oc2ccccc2c1C(=O)c1cc(I)c(O)c(I)c1 [BENZIODARONE]
Ans. 62.8

Qu. Give the measured MCV for CC(C)(S)[C@@H](N)C(=O)O [PENICILLAMINE]
Ans. 64.1

----------
Organism: Rattus norvegicus
Assay: Open TG-GATES - Regimen: Daily Repeat
Format: toxicity, organism-based, Sprague-Dawley
Parameters: regimen Daily Repeat, gender Male, age 6 weeks
Details: in vivo, po, 0 mg/kg, 72 h, tissue Plasma, route gavage, dose level Control, time 3 day
MEASURED ENDPOINT: IP (mg/dL)
I only need the number, in mg/dL, no unit after it.

Qu. Give the measured IP for CCN1CCCC1CNC(=O)c1cc(S(N)(=O)=O)ccc1OC (stereo unspecified) [SULPIRIDE]
Ans. 7.3

Qu. Give the measured IP for CC(=O)Oc1cc(C(C)C)c(OCCN(C)C)cc1C [MOXISYLYTE]
Ans. 7

Qu. Give the measured IP for C#C[C@]1(O)CC[C@H]2[C@@H]3CCc4cc(O)ccc4[C@H]3CC[C@@]21C [ETHINYL ESTRADIOL]
Ans. 6.5

Qu. Give the measured IP for CCSCC[C@H](N)C(=O)O [ETHIONINE]
Ans. 7.8

Qu. Give the measured IP for CCC(C)(C)C(=O)O[C@H]1C[C@@H](C)C=C2C=C[C@H](C)[C@H](CC[C@@H]3C[C@@H](O)CC(=O)O3)[C@H]21 [SIMVASTATIN]
Ans. 7.8

Qu. Give the measured IP for Oc1ncnc2[nH]ncc12 [ALLOPURINOL]
Ans. 8.1

Qu. Give the measured IP for "Nc1nc(N)c2nc(-c3ccccc3)c(N)nc2n1"
Ans. 7.7

Qu. Give the measured IP for C[C@](N)(Cc1ccc(O)c(O)c1)C(=O)O [METHYLDOPA]
Ans. 7.5

Qu. Give the measured IP for CN1C(=O)OC(C)(C)C1=O [TRIMETHADIONE]
Ans. 7

Qu. Give the measured IP for CC(C)C(=O)Nc1ccc([N+](=O)[O-])c(C(F)(F)F)c1 [FLUTAMIDE]
Ans. 7.1

Qu. Give the measured IP for CC(C)(S)[C@@H](N)C(=O)O [PENICILLAMINE]
Ans. 6.8

----------
Organism: Rattus norvegicus
Assay: Open TG-GATES - Regimen: Daily Repeat
Type: toxicity, organism-based, Sprague-Dawley
Design: regimen Daily Repeat, gender Male, age 6 weeks
Conditions: in vivo, po, 0 mg/kg, […], tissue Blood, route gavage, dose level Control, time 28 day
MEASURED ENDPOINT: Plat (x10_4/uL)
I only need the number, in x10_4/uL, no unit after it.

Qu. Give the measured Plat for CCN1CCCC1CNC(=O)c1cc(S(N)(=O)=O)ccc1OC (stereo not given) [SULPIRIDE]
Ans. 119.5

Qu. Give the measured Plat for O=C(O)c1cccnc1 [NIACIN]
Ans. 89.6

Qu. Give the measured Plat for CCc1oc2ccccc2c1C(=O)c1cc(I)c(O)c(I)c1 [BENZIODARONE]
Ans. 117.3

Qu. Give the measured Plat for CN1C(=O)OC(C)(C)C1=O [TRIMETHADIONE]
Ans. 109.9

Qu. Give the measured Plat for C[C@](N)(Cc1ccc(O)c(O)c1)C(=O)O [METHYLDOPA]
Ans. 106

Qu. Give the measured Plat for C#C[C@]1(O)CC[C@H]2[C@@H]3CCc4cc(O)ccc4[C@H]3CC[C@@]21C [ETHINYL ESTRADIOL]
Ans. 88.3

Qu. Give the measured Plat for CCSCC[C@H](N)C(=O)O [ETHIONINE]
Ans. 113.3

Qu. Give the measured Plat for "Nc1nc(N)c2nc(-c3ccccc3)c(N)nc2n1"
Ans. 111.3

Qu. Give the measured Plat for O=C(N[C@H](CO)[C@H](O)c1ccc([N+](=O)[O-])cc1)C(Cl)Cl [CHLORAMPHENICOL]
Ans. 93.9

Qu. Give the measured Plat for CCC(C)(C)C(=O)O[C@H]1C[C@@H](C)C=C2C=C[C@H](C)[C@H](CC[C@@H]3C[C@@H](O)CC(=O)O3)[C@H]21 [SIMVASTATIN]
Ans. 120.4

----------
Please provide measured Bas for the entries that follow.
Organism: Rattus norvegicus
Assay: Open TG-GATES - Regimen: Daily Repeat
Type: toxicity, organism-based, Sprague-Dawley
Parameters: regimen Daily Repeat, gender Male, age 6 weeks
Conditions: in vivo, po, 0 mg/kg, […], tissue Blood, route gavage, dose level Control, time 14 day
Record the result as number plus unit.

Qu. Give the measured Bas for "CCSCC[C@H](N)C(=O)O"
Ans. 0%

Qu. Give the measured Bas for "O=C(O)c1cccnc1"
Ans. 0%

Qu. Give the measured Bas for "CN1C(=O)OC(C)(C)C1=O"
Ans. 0.4%

Qu. Give the measured Bas for CC(=N)S [THIOACETAMIDE]
Ans. 0%

Qu. Give the measured Bas for "CCc1oc2ccccc2c1C(=O)c1cc(I)c(O)c(I)c1"
Ans. 0%

Qu. Give the measured Bas for "C[C@](N)(Cc1ccc(O)c(O)c1)C(=O)O"
Ans. 0%

Qu. Give the measured Bas for "CC(C)(S)[C@@H](N)C(=O)O"
Ans. 0%

Qu. Give the measured Bas for "CCC(C)(C)C(=O)O[C@H]1C[C@@H](C)C=C2C=C[C@H](C)[C@H](CC[C@@H]3C[C@@H](O)CC(=O)O3)[C@H]21"
Ans. 0%

Qu. Give the measured Bas for "Oc1ncnc2[nH]ncc12"
Ans. 0%

Qu. Give the measured Bas for "C[C@]12CCC(=O)C=C1CC[C@@H]1[C@@H]2CC[C@@]2(C)[C@H]1CC[C@]2(C)O"
Ans. 0.2%
